- measurement description: Effect of concentration on the stability of the solution (purity over time)
- reported conditions: 1 wt %; in water at 25° C.
quantity kind: Purity at Day 28 (%)
Just the number in %, nothing appended.

Query :: Read the entry CCN(CC)CCOC(=O)[C@H](C)c1ccc2cc(OC)ccc2c1.Cl (racemic) and write its reported Purity at Day 28.
Result :: 96.4

Query :: Read the entry CCN(CC)CCOC(=O)CC1=C(C)C(=Cc2ccc([S+](C)[O-])cc2)c2ccc(F)cc21.Cl (centres unmarked) and write its reported Purity at Day 28.
Result :: 90.1

Query :: Read the entry CCN(CC)CCOC(=O)CCc1ccc2cc(OC)ccc2c1.Cl and write its reported Purity at Day 28.
Result :: 90.9

Query :: Read the entry CCN(CC)CCOC(=O)C(C)c1ccc2oc(-c3ccc(Cl)cc3)nc2c1.Cl (centres unmarked) and write its reported Purity at Day 28.
Result :: 89.9

Query :: Read the entry CCN(CC)CCOC(=O)Cc1ccc(C(=O)c2ccc(C)cc2)n1C.Cl and write its reported Purity at Day 28.
Result :: 88.6
